test system: HCV NS5B polymerase 1a-H77-C316Y; test: biochemical; set-up: species or system HCV genotype 1a; settings: ratio of enzyme IC50s, 1a H77-C316Y / 1a H77
readout-label: C316Y/1a Fold Resistance
Phrase the answer as number then unit, nothing more needed.

Reference set, count: 5
compound	C316Y/1a Fold Resistance
CS(=O)(=O)CCN(c1cc2oc(-c3ccc(F)cc3)c(-c3ncc[nH]3)c2cc1C1CC1)S(C)(=O)=O [Example 87]	26 fold
CS(=O)(=O)N(Cc1cccc(C(F)(F)F)c1)c1ccc2c(-c3ncc[nH]3)c(-c3ccccc3)oc2c1 [Example 32]	1 fold
CS(=O)(=O)N(CCCCCO)c1cc2oc(-c3ccc(F)cc3)c(C3=NOCCN3)c2cc1C1CC1 [Example 134]	5 fold
CS(=O)(=O)N(CCOc1ccccc1)c1cc2oc(-c3ccc(F)cc3)c(-c3ncc[nH]3)c2cc1C1CC1 [Example 43]	154 fold
CS(=O)(=O)N(CCC1CCOCC1)c1cc2oc(-c3ccc(F)cc3)c(-c3ncc[nH]3)c2cc1C1CC1 [Example 48]	10 fold

Endpoint output: C316Y/1a Fold Resistance of CC(=O)OCCCCCN(c1cc2oc(-c3ccc(F)cc3)c(-c3ncc[nH]3)c2cc1C1CC1)S(C)(=O)=O [Example 46] . Value?
22 fold

GET /values?readout=C316Y/1a Fold Resistance&item= CC(C)CCN(c1cc2oc(-c3ccc(F)cc3)c(C3=NOCN3)c2cc1C1CC1)S(C)(=O)=O [Example 156]
5 fold

###

test system: HCV 1a-H77 subgenomic replicon; assay: microbe, parasite or virus in culture; type: cell-based, HCV genotype 1a; conditions: Hepatitis C virus, stable replicon, strain 1a H77, 5% FBS, no human plasma; read-out: 1a H77 5% FBS EC50
readout-label: EC50 (µM)
Provide the reading as a plain figure in µM.

molecule	test-target	observed
C[S+]([O-])CCCN(c1cc2oc(-c3ccc(F)cc3)c(C3=NOCCN3)c2cc1C1CC1)S(C)(=O)=O (stereo not shown)	HCV 1a-H77 subgenomic replicon	0.0592
CS(=O)(=O)N(CCCCC(F)=C(F)F)c1cc2oc(-c3ccc(F)cc3)c(C3=NOCCN3)c2cc1C1CC1	HCV 1a-H77 subgenomic replicon	0.0175
CS(=O)(=O)N(CCCC#N)c1cc2oc(-c3ccc(F)cc3)c(-c3ncc[nH]3)c2cc1C1CC1	HCV 1a-H77 subgenomic replicon	0.0037
CS(=O)(=O)NC(=O)CCCN(c1cc2oc(-c3ccc(F)cc3)c(-c3ncc[nH]3)c2cc1C1CC1)S(C)(=O)=O	HCV 1a-H77 subgenomic replicon	0.108
COc1ccc(CN(c2cc3oc(-c4ccc(F)cc4)c(C4=NOC(C)N4)c3cc2C2CC2)S(C)(=O)=O)cc1 (stereo not shown)	HCV 1a-H77 subgenomic replicon	0.119
CC(C)CCN(c1cc2oc(-c3ccc(F)cc3)c(C3=NOCC(=O)N3)c2cc1C1CC1)S(C)(=O)=O	HCV 1a-H77 subgenomic replicon	0.248

Let us examine a further case.
# EC50 lookup, item CS(=O)(=O)N(CCCC(=O)O)c1cc2oc(-c3ccc(F)cc3)c(-c3ncc[nH]3)c2cc1C1CC1
0.269

###

Some molecules, each annotated with its measured IC50.
biological target: HCV NS5B polymerase 1b BK strain (Hepatitis C virus genotype 1b, UniProt P26663); construct: six-histidine tag; made in house; host or cells: E. coli; assay: HCV NS5B polymerase enzymatic inhibition assay, strain 1b BK; assay type: biochemical; details: enzyme, strain 1b BK; read-out: HCV Polymerase Strain 1b BK IC50
Sequence (P26663 2420-2989): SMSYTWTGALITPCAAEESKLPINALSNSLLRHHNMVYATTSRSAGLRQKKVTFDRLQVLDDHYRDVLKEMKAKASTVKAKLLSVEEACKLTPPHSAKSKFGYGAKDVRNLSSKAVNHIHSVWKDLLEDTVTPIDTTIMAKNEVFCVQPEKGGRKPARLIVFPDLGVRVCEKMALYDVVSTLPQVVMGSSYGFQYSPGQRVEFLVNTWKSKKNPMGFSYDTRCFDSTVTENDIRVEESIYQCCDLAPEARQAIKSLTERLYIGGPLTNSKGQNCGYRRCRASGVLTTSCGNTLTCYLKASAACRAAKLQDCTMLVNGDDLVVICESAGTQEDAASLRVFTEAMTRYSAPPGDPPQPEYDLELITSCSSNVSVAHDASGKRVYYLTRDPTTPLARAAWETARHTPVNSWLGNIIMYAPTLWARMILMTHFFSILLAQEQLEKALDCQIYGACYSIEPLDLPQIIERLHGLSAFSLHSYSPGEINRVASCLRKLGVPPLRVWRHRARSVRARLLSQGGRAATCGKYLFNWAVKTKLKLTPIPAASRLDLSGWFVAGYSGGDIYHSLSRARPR
Give just the number in nM; leave the unit off.

molecule	IC50 / nM
CS(=O)(=O)N(Cc1cnc(Br)s1)c1cc2oc(-c3ccc(F)cc3)c(-c3ncc[nH]3)c2cc1C1CC1 [Example 67]	12
CS(=O)(=O)N(CCN)c1cc2oc(-c3ccc(F)cc3)c(-c3ncc[nH]3)c2cc1C1CC1 [Example 111]	111

Which value of IC50 has been reported for COc1ccc(CN(c2cc3oc(-c4ccc(F)cc4)c(C4=NOCN4)c3cc2C2CC2)S(C)(=O)=O)cc1 [Example 145] in the records?
35

Reported IC50, molecule CS(=O)(=O)N(CCC/C(N)=N/O)c1cc2oc(-c3ccc(F)cc3)c(-c3ncc[nH]3)c2cc1C1CC1 [Example 176] : ____
33
